system: P. aeruginosa 6294; format: cell-based; details: MIC, peptide in solution, 18 hours at 35° C.
readout: minimum concentration required to inhibit bacterial growth, P.a 6284

Which value of minimum concentration required to inhibit bacterial growth, P.a 6284 has been reported for RPRVSRRRRRRGGRRRRTLISWIKNKRKQ (RPRVSRRRRRRGGRRRRTLISWIKNKRKQ) [Prottatin] in the records?
500 µg/mL

###

tested on: S. aureus 31; test: MIC in solution (tube/microtitre turbidity); format: cell-based; conditions: MIC, peptide in solution, 18 hours at 35° C.
readout: minimum concentration required to inhibit bacterial growth, S.a. 31

Which measured minimum concentration required to inhibit bacterial growth, S.a. 31 value corresponds to RPRVSRRRRRRGGRRRRTLISWIKNKRKQ (RPRVSRRRRRRGGRRRRTLISWIKNKRKQ) [Prottatin] ?
1000 µg/mL
